procedure details: PK analysis in male Sprague-Dawley rats
Type: in vivo
measurement setup: male, Sprague-Dawley, plasma, po; rat, p.o. 10 mg/kg, hydrochloride salt forms
Method: Blood samples were centrifuged, supernatant plasma was removed, and plasma concentrations of compounds were determined by LC-MS. […] Studies were carried out by CDCO.
Consider the following compounds and their measured Cmax readings.
recorded metric: Cmax (nM)

[
  {
    "smiles code": "NC(=O)c1ccc(OCCNC[C@H](O)COc2ccc3c(c2)OC[C@@H](COCC2CC2)O3)cc1",
    "reported": 2100
  },
  {
    "smiles code": "O=C1NCc2cc(OCCNC[C@H](O)COc3ccc4c(c3)OC[C@@H](COCC3CC3)O4)ccc21",
    "reported": 800
  }
]
